B1: EDARADD (parent)
chain: VEKVLRRWVDEEWPKRERGDPSRH

Variants of: B1
Assay: protein stability index of a GFP-peptide fusion (GPS, HEK-293T) (PSI 1-6); higher = more stable;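 note: lentivirally expressed fusions sorted by FACS into six bins by GFP to DsRed ratio, PSI derived from sequencing read proportions per bin multiplied by bin number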
Conditions: c terminus: a fixed tail appended
I'd be grateful if you could share measured protein stability index for these entries.
API doc: respond with a numeric literal and nothing else, no unit.

*Q* Recorded protein stability index of E17M , please.
*A* 2.97

*Q* Same again, this time with E2H
*A* 2.37

*Q* # repeat for D20I
*A* 2.19

*Q* Lookup S22G
*A* 2.31

*Q* Would you kindly repeat that for D10K ?
*A* 2.4

*Q* Subsequent entry: R7G
*A* 3.98

*Q* Next entry: E11N
*A* 3.19

*Q* Proceed to K3I
*A* 1.25

*Q* Another: L5P
*A* 4.07

*Q* Next: R23M
*A* 2.45

*Q* Same for R6Y
*A* 3.13

*Q* Another: R23K
*A* 2.83

*Q* Similarly, P21M ?
*A* 2.39

*Q* And the next one, V4C ?
*A* 2.62

*Q* Now consider D10A and answer again.
*A* 2.53

*Q* Also check R7C
*A* 2.35

*Q* Please answer likewise for D20N
*A* 2.94

*Q* Record: V9W
*A* 3.05

*Q* Similarly, P14C ?
*A* 3.5

*Q* // query: E12Q
*A* 1.95

*Q* Consider next the variant D20F in the same way.
*A* 2.35

*Q* Another variant to look at: R23S
*A* 3.07

*Q* # iterate: E12P
*A* 2.4

*Q* Cool, now V4R
*A* 3.42

*Q* Then this variant: D10F
*A* 2.81

*Q* Same for K3S
*A* 3.01

*Q* What about this variant? H24E
*A* 2.48

*Q* Follow-up item: R7Q
*A* 3.45

*Q* Thanks! And W13R ?
*A* 3.96

*Q* Next record, please: E11K
*A* 2.08

*Q* Could you do the same for S22E , please?
*A* 3.63

*Q* Now consider K3P .
*A* 3.8

*Q* // next record S22M
*A* 2.17

*Q* Repeat for the following variant: K3Q
*A* 2.85

*Q* Same question for D10I please.
*A* 2.65

*Q* Repeat with K15M
*A* 2.97

*Q* // next record H24N
*A* 2.75

*Q* Further, for R7P ?
*A* 3.9

*Q* Do the same for P21H please
*A* 2.52

*Q* Moving on to G19R
*A* 2.64

*Q* Then this variant: E12F
*A* 1.78

*Q* Another variant to check: G19D
*A* 3.1

*Q* Entry to check: G19K
*A* 2.79

*Q* // same read-out, input: P21A
*A* 3.34

*Q* Another: E2M
*A* 1.96

*Q* Moving on to the next variant: D20Q
*A* 2.5

*Q* Another variant to check: P21I
*A* 2.36

*Q* Consider next the variant R6I in the same way.
*A* 2.47

*Q* K15I ?
*A* 2.82

*Q* Similarly, R7E ?
*A* 3.91

*Q* Try G19L next.
*A* 2.37

*Q* Also R16N , if possible.
*A* 3.62

*Q* Follow-up item: R18K
*A* 1.81

*Q* Please do the same for K15T as well.
*A* 3.51

*Q* Would you kindly repeat that for L5F ?
*A* 3.25

*Q* Consider next the variant D20G in the same way.
*A* 2.81

*Q* Also check V9F
*A* 2.55

*Q* Item: G19F
*A* 2.05

*Q* Thanks! And L5A ?
*A* 4.3
